ASSAYED SYSTEM: Integrin alpha-4/beta-1 (Homo sapiens, UniProt P05556+P13612)
Sequence (P05556 whole entry): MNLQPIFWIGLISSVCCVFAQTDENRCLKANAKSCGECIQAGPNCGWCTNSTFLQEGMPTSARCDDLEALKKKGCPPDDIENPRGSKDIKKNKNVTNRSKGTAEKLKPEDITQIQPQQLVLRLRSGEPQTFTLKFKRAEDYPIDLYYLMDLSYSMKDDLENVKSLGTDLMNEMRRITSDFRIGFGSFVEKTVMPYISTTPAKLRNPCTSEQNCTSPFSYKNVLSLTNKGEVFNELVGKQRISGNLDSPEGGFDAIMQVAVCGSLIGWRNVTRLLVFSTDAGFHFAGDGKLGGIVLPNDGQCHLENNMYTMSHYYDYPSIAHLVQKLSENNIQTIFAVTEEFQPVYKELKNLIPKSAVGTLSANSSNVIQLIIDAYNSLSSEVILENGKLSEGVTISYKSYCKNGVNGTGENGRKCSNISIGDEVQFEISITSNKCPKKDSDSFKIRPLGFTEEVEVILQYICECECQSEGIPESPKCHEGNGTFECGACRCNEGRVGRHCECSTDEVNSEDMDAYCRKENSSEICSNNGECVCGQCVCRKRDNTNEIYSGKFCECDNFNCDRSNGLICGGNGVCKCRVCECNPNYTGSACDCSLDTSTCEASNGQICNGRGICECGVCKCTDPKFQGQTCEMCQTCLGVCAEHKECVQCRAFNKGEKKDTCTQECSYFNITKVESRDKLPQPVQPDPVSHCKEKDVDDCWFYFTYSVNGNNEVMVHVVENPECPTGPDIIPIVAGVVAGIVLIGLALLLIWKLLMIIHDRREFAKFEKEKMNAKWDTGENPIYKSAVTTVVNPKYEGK
Sequence (P13612 whole entry): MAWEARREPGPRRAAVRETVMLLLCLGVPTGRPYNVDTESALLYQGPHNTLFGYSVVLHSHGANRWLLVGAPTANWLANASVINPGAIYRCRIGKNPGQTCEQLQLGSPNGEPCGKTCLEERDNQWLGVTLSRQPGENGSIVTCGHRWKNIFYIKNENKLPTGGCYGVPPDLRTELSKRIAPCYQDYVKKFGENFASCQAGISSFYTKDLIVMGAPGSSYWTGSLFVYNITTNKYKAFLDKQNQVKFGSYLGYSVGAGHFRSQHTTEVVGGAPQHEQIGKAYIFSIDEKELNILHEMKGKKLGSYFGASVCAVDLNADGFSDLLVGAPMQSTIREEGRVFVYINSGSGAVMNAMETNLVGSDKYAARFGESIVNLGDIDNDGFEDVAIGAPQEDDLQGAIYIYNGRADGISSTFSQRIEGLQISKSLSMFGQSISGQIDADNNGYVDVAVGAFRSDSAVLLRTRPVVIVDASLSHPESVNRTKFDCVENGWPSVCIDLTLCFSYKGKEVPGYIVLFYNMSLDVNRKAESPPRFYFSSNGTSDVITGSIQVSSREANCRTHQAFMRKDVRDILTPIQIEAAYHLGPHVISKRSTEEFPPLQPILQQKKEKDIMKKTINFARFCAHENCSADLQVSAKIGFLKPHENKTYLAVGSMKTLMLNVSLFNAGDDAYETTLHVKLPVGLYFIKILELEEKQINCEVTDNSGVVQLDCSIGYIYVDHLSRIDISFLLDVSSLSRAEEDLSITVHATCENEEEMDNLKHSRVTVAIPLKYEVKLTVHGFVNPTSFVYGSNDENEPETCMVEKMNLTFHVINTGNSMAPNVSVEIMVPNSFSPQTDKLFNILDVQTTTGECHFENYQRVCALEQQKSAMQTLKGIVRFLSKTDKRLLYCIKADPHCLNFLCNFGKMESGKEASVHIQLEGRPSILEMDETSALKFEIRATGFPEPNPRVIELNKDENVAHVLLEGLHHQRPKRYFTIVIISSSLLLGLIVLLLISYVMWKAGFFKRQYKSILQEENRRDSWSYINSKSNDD
RUN DESCRIPTION: Inhibition of VLA-4 to VCAM-1 binding
Format: protein-complex assay
pIC50: −log10 of the molar value.
QUANTITY KIND: pIC50

MOLECULE	QUANTITY KIND	RECORDED RESULT
CC(=O)N1CSC[C@@H]1C(=O)N/C(=C/c1ccc(NC(=O)c2c(Cl)cncc2Cl)cc1)C(=O)O	pIC50	7.22
O=C(O)/C(=C/c1ccc(OCc2c(Cl)cncc2Cl)cc1)NC(=O)c1cccnc1Cl	pIC50	6.85
O=C(O)C1=Cc2ccc(NC(=O)c3c(Cl)cncc3Cl)cc2NC(c2cccnc2Cl)=N1	pIC50	7.26
CC(=O)N1CSC[C@@H]1C(=O)N/C(=C\c1ccc(NC(=O)c2c(Cl)cncc2Cl)cc1)C(=O)O	pIC50	8.70

(I) O=C(O)/C(=C/c1ccc(NC(=O)c2c(Cl)cncc2Cl)cc1)NC(=O)c1cccnc1Cl
(II) CC(=O)N1CSCC1C(=O)N/C(=C/c1ccc(OCc2c(Cl)cccc2Cl)cc1)C(=O)O (centres undefined)
(III) O=C(O)/C(=C\c1ccc(NC(=O)c2c(Cl)cncc2Cl)cc1)NC(=O)c1cccnc1Cl
(IV) O=C(O)/C(=C/c1ccc(OCc2c(Cl)cccc2Cl)cc1)NC(=O)c1cccnc1Cl
(V) CC(=O)N1CSC[C@H]1C(=O)N/C(=C/c1ccc(OCc2ccccc2)cc1)C(=O)O
Sort these molecules on pIC50 so the largest reading comes first. Please list the labels in the order you were asked to rank them.
I, III, IV, V, II
